// data source = patent US20150196651A1

% of PrRP31 values by entry
system.name: T1, rat PrRP receptor in RC-4B/C cells (rat, UniProt Q64121 1-370)
T1 construct: whole, on cells; endogenous receptor of RC-4B/C cells (ATCC); also called rat receptor; GPR10 receptor expressed in rat hypophyseal cells
T1 sequence (looked up): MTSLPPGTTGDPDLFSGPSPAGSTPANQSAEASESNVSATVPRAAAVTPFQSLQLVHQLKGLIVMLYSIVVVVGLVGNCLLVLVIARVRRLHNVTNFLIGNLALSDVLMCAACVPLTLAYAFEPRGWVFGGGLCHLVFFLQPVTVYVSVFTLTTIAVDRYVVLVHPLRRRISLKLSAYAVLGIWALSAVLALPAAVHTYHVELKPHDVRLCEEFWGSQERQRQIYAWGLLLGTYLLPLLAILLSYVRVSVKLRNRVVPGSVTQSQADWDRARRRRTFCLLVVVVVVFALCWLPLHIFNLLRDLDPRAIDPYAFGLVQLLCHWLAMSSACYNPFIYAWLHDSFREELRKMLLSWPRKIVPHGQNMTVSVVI
measurement.notes: competition with 125I-rat PrRP31, RC-4B/C cells
Square brackets hold non-standard residues; d marks the D form. Ends that are not written are not given here. * marks the point of attachment. Palmitoyl = CCCCCCCCCCCCCCCC(=O)*; Myristoyl = CCCCCCCCCCCCCC(=O)*; PheCl2 = dichlorophenylalanine; PheNO2 = nitrophenylalanine; Nle = CCCC[C@H](N)C(=O)O
parameter.measured: % of PrRP31 (%)

- binder: "Palmitoyl-SRAHQHS[Nle]ETRTPDINPAWYTGRGIRPVGR[PheCl2]-NH2 [analog no. 15]"
  result.units: "%"
  quantitative.result: 379
- binder: "Myristoyl-SRAHQHS[Nle]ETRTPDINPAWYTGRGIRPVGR[PheNO2]-NH2 [analog no. 17]"
  result.units: "%"
  quantitative.result: 250
- binder: "Myristoyl-SRAHQHS[Nle]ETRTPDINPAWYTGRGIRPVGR[PheCl2]-NH2 [analog no. 14]"
  result.units: "%"
  quantitative.result: 275
- binder: "SRTHRHSMEIKTPDINPAWYASRGIRPVGRF-NH2 (not fully specified (residue 11)) [analog no. 57]"
  result.units: "%"
  quantitative.result: 663
- binder: "Myristoyl-SHQRPADTHWYPRG[Nle]FPTIGRITARNGEVSR (scrambled peptide; also called 20 scram) [analog no. 20]"
  result.units: "%"
  quantitative.result: 4.6
